target: Electrical (Torpedo californica) AChE (type VI-S) (Electrophorus electricus); construct: purchased Sigma-Aldrich (Steinheim, Germany) type VI-S; assay: biochemical; assay type: biochemical; conditions: read-out: AChE Inhibition [IC50 (μM)]
Sequence (O42275 24-633): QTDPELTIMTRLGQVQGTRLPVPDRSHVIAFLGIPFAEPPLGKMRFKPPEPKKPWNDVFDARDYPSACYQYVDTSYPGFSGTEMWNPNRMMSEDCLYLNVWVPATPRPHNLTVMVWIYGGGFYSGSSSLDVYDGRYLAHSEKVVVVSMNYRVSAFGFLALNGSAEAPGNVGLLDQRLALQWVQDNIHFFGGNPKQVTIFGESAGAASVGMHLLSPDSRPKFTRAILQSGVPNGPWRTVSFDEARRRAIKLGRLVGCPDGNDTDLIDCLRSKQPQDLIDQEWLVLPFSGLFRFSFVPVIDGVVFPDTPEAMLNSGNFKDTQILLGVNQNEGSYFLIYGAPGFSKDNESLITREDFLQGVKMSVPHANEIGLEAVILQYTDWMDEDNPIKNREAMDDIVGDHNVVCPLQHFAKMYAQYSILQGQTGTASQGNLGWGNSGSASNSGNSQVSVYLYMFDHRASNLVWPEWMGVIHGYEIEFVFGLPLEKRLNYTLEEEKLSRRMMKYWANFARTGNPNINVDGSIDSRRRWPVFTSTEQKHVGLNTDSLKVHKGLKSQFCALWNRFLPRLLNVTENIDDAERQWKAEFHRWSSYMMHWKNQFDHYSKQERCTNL

>  <sample.smiles>
COc1cc2ncn(Cc3ccc[n+](Cc4ccc(F)cc4)c3)c(=O)c2cc1OC

>  <value.comparator>
=

>  <IC50 [µM]>
21.9

$$$$
>  <sample.smiles>
O=c1c2ccccc2ncn1Cc1ccc[n+](Cc2ccc(F)cc2)c1

>  <value.comparator>
>

>  <IC50 [µM]>
100

$$$$

----------
target: BuChE (E.C.3.1.1.8, from equine serum) (Equus caballus, UniProt P81908); construct: BuChE (E.C.3.1.1.8, from equine serum); purchased Sigma-Aldrich (Steinheim, Germany); host or cells: equine serum; experiment: biochemical; format: biochemical; settings: Ellman's method, average ±SD, triplicate; read-out: BuChE Inhibition [IC50 (μM)]
Sequence (P81908 whole entry): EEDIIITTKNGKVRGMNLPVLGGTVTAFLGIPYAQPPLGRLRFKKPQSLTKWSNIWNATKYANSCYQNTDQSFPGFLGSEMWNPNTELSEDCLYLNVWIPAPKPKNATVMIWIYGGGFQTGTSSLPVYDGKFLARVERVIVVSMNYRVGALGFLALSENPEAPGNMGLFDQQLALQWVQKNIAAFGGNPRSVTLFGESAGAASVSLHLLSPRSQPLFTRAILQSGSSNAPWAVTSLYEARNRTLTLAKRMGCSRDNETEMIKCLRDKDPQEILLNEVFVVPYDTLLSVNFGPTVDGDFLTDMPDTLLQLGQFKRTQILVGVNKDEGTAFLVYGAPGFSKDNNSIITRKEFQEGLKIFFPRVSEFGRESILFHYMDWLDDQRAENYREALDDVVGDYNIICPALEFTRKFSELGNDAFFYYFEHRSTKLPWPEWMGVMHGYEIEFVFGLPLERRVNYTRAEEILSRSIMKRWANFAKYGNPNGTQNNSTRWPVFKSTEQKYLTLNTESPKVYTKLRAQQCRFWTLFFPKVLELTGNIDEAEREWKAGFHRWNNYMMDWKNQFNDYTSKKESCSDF
Each item that follows carries a reported IC50.

>  <sample.smiles>
COc1cc2ncn(Cc3ccc[n+](Cc4ccc(Cl)cc4)c3)c(=O)c2cc1OC.[Cl-]

>  <measured.target>
BuChE (E.C.3.1.1.8, from equine serum) (Equus caballus, UniProt P81908)

>  <IC50>
> 100 µM

$$$$
>  <sample.smiles>
N#Cc1ccc(C[n+]2cccc(Cn3cnc4ccccc4c3=O)c2)cc1

>  <measured.target>
BuChE (E.C.3.1.1.8, from equine serum) (Equus caballus, UniProt P81908)

>  <IC50>
> 100 µM

$$$$
>  <sample.smiles>
COc1cc2ncn(Cc3ccc[n+](Cc4ccc(C#N)cc4)c3)c(=O)c2cc1OC

>  <measured.target>
BuChE (E.C.3.1.1.8, from equine serum) (Equus caballus, UniProt P81908)

>  <IC50>
> 100 µM

$$$$
